assay: self-splicing fitness, log relative to wild type (ln ratio); higher = more splicing; Tetrahymena group I intron in knt gene, E. coli kanamycin selection, DiMSum; sequences stand for … in CUCUCU…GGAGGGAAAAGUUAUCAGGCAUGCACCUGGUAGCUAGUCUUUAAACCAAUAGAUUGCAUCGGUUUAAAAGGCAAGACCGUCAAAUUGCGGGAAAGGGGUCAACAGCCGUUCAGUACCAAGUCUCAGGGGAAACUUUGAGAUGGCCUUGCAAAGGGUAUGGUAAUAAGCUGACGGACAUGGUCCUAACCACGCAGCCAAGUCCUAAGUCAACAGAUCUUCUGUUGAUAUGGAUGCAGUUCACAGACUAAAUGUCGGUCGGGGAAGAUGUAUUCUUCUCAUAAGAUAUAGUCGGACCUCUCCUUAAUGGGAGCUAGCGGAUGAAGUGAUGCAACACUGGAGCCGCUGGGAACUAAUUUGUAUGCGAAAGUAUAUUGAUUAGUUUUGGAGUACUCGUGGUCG; details: 30 °C;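 note: selection with 25 µg/mL kanamycin versus none on LB agar overnight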
We use -2 as the dividing line for self-splicing fitness (ln): on or above the line is Criterion met, below is Criterion not met.

SEQUENCE TEXT: UACCAGCAAUAUUACGGGUA
ASSIGNED CLASS: Criterion not met
//
SEQUENCE TEXT: GUAAAGCAAUAUUACGGAAA
ASSIGNED CLASS: Criterion not met
//
SEQUENCE TEXT: UCCAAGCAAUAUUACGUUUG
ASSIGNED CLASS: Criterion not met
//
SEQUENCE TEXT: AUUUAGCAAUAUUACGGCUG
ASSIGNED CLASS: Criterion met
//
SEQUENCE TEXT: UGAUAGCAAUAUUACGCACG
ASSIGNED CLASS: Criterion met
//
SEQUENCE TEXT: GUCUAGCAAUAUUACGAUUU
ASSIGNED CLASS: Criterion met
//
SEQUENCE TEXT: CUUGAGCAAUAUUACGGAUU
ASSIGNED CLASS: Criterion not met
//
SEQUENCE TEXT: CAUCAGCAAUAUUACGCGGU
ASSIGNED CLASS: Criterion not met
//
SEQUENCE TEXT: AUAUAGCAAUAUUACGAUAU
ASSIGNED CLASS: Criterion met
//
SEQUENCE TEXT: GCACAGCAAUAUUACGCUUG
ASSIGNED CLASS: Criterion not met
//
SEQUENCE TEXT: GAUGAGCAAUAUUACGCGGG
ASSIGNED CLASS: Criterion not met
//
SEQUENCE TEXT: CAAUAGCAAUAUUACGCUCA
ASSIGNED CLASS: Criterion met
//
SEQUENCE TEXT: AGCCAGCAAUAUUACGGCAC
ASSIGNED CLASS: Criterion met
//
SEQUENCE TEXT: AGGCAGCAAUAUUACGUCAC
ASSIGNED CLASS: Criterion met
//
SEQUENCE TEXT: CCGGAGCAAUAUUACGCCAG
ASSIGNED CLASS: Criterion not met

====

experiment: self-splicing fitness, log relative to wild type (ln ratio); higher = more splicing; Tetrahymena group I intron in knt gene, E. coli kanamycin selection, DiMSum; sequences stand for … in CUCUCU…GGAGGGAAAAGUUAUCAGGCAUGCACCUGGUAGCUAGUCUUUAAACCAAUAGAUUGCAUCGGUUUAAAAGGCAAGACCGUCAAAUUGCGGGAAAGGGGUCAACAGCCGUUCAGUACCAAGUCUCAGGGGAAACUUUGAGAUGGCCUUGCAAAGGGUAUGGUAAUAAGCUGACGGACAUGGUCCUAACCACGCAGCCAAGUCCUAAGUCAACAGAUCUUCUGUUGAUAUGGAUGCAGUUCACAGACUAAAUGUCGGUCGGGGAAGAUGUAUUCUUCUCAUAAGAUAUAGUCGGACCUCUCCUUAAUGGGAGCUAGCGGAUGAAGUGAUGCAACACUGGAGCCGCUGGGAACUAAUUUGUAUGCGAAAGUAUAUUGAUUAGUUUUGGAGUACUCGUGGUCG; details: 30 °C
Classify by measured self-splicing fitness (ln): Criterion met if it is equal to or exceeds -2, Criterion not met if it is smaller.

SEQUENCE TEXT: AAGCAGCAAUAUUACGUUUA
ASSIGNED CLASS: Criterion met
--
SEQUENCE TEXT: GUUGAGCAAUAUUACGGCAA
ASSIGNED CLASS: Criterion met
--
SEQUENCE TEXT: UGAGAGCAAUAUUACGUCCG
ASSIGNED CLASS: Criterion met
--
SEQUENCE TEXT: GCAUAGCAAUAUUACGUUGU
ASSIGNED CLASS: Criterion not met
--
SEQUENCE TEXT: UGAUAGCAAUAUUACGCUUA
ASSIGNED CLASS: Criterion not met
--
SEQUENCE TEXT: GUGUAGCAAUAUUACGCGCG
ASSIGNED CLASS: Criterion not met
--
SEQUENCE TEXT: AUUCAGCAAUAUUACGGAGA
ASSIGNED CLASS: Criterion met
--
SEQUENCE TEXT: UAUAAGCAAUAUUACGGAAA
ASSIGNED CLASS: Criterion not met
--
SEQUENCE TEXT: AAUUAGCAAUAUUACGGAUA
ASSIGNED CLASS: Criterion met
--
SEQUENCE TEXT: UGGAAGCAAUAUUACGGCCG
ASSIGNED CLASS: Criterion met
--
SEQUENCE TEXT: AAUGAGCAAUAUUACGUGUG
ASSIGNED CLASS: Criterion not met
--
SEQUENCE TEXT: GGCUAGCAAUAUUACGGGGA
ASSIGNED CLASS: Criterion not met
--
SEQUENCE TEXT: CAACAGCAAUAUUACGGCUG
ASSIGNED CLASS: Criterion met
--
SEQUENCE TEXT: ACUCAGCAAUAUUACGAGGG
ASSIGNED CLASS: Criterion met
--
SEQUENCE TEXT: CUAGAGCAAUAUUACGUUGG
ASSIGNED CLASS: Criterion met
--
SEQUENCE TEXT: UUGAAGCAAUAUUACGCGAG
ASSIGNED CLASS: Criterion met
--
SEQUENCE TEXT: ACUGAGCAAUAUUACGUCGG
ASSIGNED CLASS: Criterion not met
--
SEQUENCE TEXT: UUCAAGCAAUAUUACGGCUC
ASSIGNED CLASS: Criterion met
--
SEQUENCE TEXT: CCUUAGCAAUAUUACGGAAA
ASSIGNED CLASS: Criterion not met
--
SEQUENCE TEXT: AGAAAGCAAUAUUACGUCGC
ASSIGNED CLASS: Criterion not met
--
SEQUENCE TEXT: GCCGAGCAAUAUUACGUUAU
ASSIGNED CLASS: Criterion not met
--
SEQUENCE TEXT: AGCCAGCAAUAUUACGUCGG
ASSIGNED CLASS: Criterion not met
--
SEQUENCE TEXT: UGGGAGCAAUAUUACGAGUG
ASSIGNED CLASS: Criterion not met
--
SEQUENCE TEXT: GCCUAGCAAUAUUACGAUAU
ASSIGNED CLASS: Criterion not met
--
SEQUENCE TEXT: CCGAAGCAAUAUUACGCAAU
ASSIGNED CLASS: Criterion not met
--
SEQUENCE TEXT: UGCUAGCAAUAUUACGCAGU
ASSIGNED CLASS: Criterion not met
--
SEQUENCE TEXT: AACGAGCAAUAUUACGUCCU
ASSIGNED CLASS: Criterion met
--
SEQUENCE TEXT: UUCCAGCAAUAUUACGGGGG
ASSIGNED CLASS: Criterion not met
--
SEQUENCE TEXT: GCGCAGCAAUAUUACGUUUC
ASSIGNED CLASS: Criterion met
--
SEQUENCE TEXT: UCCAAGCAAUAUUACGCUGA
ASSIGNED CLASS: Criterion met
--
SEQUENCE TEXT: CAGCAGCAAUAUUACGACCG
ASSIGNED CLASS: Criterion met
--
SEQUENCE TEXT: GGUCAGCAAUAUUACGUCUU
ASSIGNED CLASS: Criterion met
--
SEQUENCE TEXT: UCUUAGCAAUAUUACGAUAG
ASSIGNED CLASS: Criterion met
--
SEQUENCE TEXT: GAACAGCAAUAUUACGAAUA
ASSIGNED CLASS: Criterion met
--
SEQUENCE TEXT: UGUUAGCAAUAUUACGUAAG
ASSIGNED CLASS: Criterion met
--
SEQUENCE TEXT: GCAAAGCAAUAUUACGUGCC
ASSIGNED CLASS: Criterion not met
--
SEQUENCE TEXT: ACAGAGCAAUAUUACGGUCA
ASSIGNED CLASS: Criterion not met
--
SEQUENCE TEXT: GAUUAGCAAUAUUACGUCAC
ASSIGNED CLASS: Criterion not met
--
SEQUENCE TEXT: AACCAGCAAUAUUACGACAU
ASSIGNED CLASS: Criterion met
--
SEQUENCE TEXT: GGGGAGCAAUAUUACGCACU
ASSIGNED CLASS: Criterion not met
--
SEQUENCE TEXT: UGUUAGCAAUAUUACGGGUU
ASSIGNED CLASS: Criterion not met
--
SEQUENCE TEXT: UCGGAGCAAUAUUACGAUGA
ASSIGNED CLASS: Criterion met
--
SEQUENCE TEXT: AAUGAGCAAUAUUACGCUGA
ASSIGNED CLASS: Criterion not met
--
SEQUENCE TEXT: CGCCAGCAAUAUUACGAACC
ASSIGNED CLASS: Criterion not met
--
SEQUENCE TEXT: UUUGAGCAAUAUUACGGCUA
ASSIGNED CLASS: Criterion met
--
SEQUENCE TEXT: AGGAAGCAAUAUUACGUCCG
ASSIGNED CLASS: Criterion met
--
SEQUENCE TEXT: ACGGAGCAAUAUUACGGAUU
ASSIGNED CLASS: Criterion not met
--
SEQUENCE TEXT: UCACAGCAAUAUUACGCGCA
ASSIGNED CLASS: Criterion met
--
SEQUENCE TEXT: CCGGAGCAAUAUUACGUUCA
ASSIGNED CLASS: Criterion met
--
SEQUENCE TEXT: GGGUAGCAAUAUUACGAGGG
ASSIGNED CLASS: Criterion not met
--
SEQUENCE TEXT: GUUUAGCAAUAUUACGAGGG
ASSIGNED CLASS: Criterion not met
--
SEQUENCE TEXT: GGGAAGCAAUAUUACGAUAA
ASSIGNED CLASS: Criterion met
--
SEQUENCE TEXT: UCAUAGCAAUAUUACGGAAA
ASSIGNED CLASS: Criterion not met
--
SEQUENCE TEXT: UGUAAGCAAUAUUACGUUAC
ASSIGNED CLASS: Criterion not met
--
SEQUENCE TEXT: GCAAAGCAAUAUUACGCCAA
ASSIGNED CLASS: Criterion not met
--
SEQUENCE TEXT: GCGCAGCAAUAUUACGGCGA
ASSIGNED CLASS: Criterion met
--
SEQUENCE TEXT: AUGUAGCAAUAUUACGUCAU
ASSIGNED CLASS: Criterion met
--
SEQUENCE TEXT: CACGAGCAAUAUUACGUAUU
ASSIGNED CLASS: Criterion not met
--
SEQUENCE TEXT: CGCAAGCAAUAUUACGCCAA
ASSIGNED CLASS: Criterion not met
--
SEQUENCE TEXT: UGGUAGCAAUAUUACGGGCC
ASSIGNED CLASS: Criterion met
--
SEQUENCE TEXT: UUCUAGCAAUAUUACGCUCA
ASSIGNED CLASS: Criterion met
--
SEQUENCE TEXT: UGAUAGCAAUAUUACGGUCU
ASSIGNED CLASS: Criterion met
--
SEQUENCE TEXT: CCGUAGCAAUAUUACGUUGC
ASSIGNED CLASS: Criterion not met
